pKd: recorded values
# Test System: T1, FR3exFc (human)
# T1 construct: also called FGFR3/Fc; FR3/Fc
# T1 sequence (chain, as listed by the source limits assumed): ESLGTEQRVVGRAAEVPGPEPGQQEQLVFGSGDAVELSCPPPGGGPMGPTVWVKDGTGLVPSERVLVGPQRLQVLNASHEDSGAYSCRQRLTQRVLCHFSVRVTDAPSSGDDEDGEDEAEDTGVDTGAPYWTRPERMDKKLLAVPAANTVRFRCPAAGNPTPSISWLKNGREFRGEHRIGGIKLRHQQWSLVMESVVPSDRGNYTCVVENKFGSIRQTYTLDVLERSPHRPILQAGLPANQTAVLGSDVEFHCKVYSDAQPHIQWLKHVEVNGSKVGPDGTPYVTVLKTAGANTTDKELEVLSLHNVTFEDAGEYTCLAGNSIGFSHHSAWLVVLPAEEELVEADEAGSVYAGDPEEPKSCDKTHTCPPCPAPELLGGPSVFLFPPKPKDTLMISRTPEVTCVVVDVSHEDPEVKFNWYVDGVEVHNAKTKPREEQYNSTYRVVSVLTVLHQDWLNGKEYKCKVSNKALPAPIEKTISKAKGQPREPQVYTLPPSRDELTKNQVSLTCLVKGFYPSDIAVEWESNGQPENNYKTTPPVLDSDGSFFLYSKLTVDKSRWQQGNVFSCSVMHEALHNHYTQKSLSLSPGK
# Procedure Summary: BIACORE, FGFR3 captured on an anti-Fc chip
Conceptually, pKd converts a concentration in mol/L into minus its log10.

- Binder: "MSPRO28 (Fab, V domains shown) VH: QVQLVQSGAEVKKPGSSVKVSCKASGGTFSSYAISWVRQAPGQGLEWMGGIIPIFGTANYAQKFQGRVTITADESTSTAYMELSSLRSEDTAVYYCARGGGWVSHGYYYLFDLWGQGTLVTVSS VL: DIQMTQSPSSLSASVGDRVTITCRASQGISSYLAWYQQKPGKAPKLLIYAASSLQSGVPSRFSGSGSGTDFTLTISSLQPEDFAVYYCFQYGSIPPTFGQGTKVEIKR"
  Value Type: "pKd"
  Reported Measurement: 8.05
- Binder: "MSPRO29 (Fab, V domains shown) VH: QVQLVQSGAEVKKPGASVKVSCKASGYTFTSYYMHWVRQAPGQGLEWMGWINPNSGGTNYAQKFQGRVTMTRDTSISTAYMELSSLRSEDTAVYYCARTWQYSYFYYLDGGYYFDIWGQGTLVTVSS VL: DIVLTQSPATLSLSPGERATLSCRASQSVSSSYLAWYQQKPGQAPRLLIYGASSRATGVPARFSGSGSGTDFTLTISSLEPEDFATYYCQQTNNAPVTFGQGTKVEIKR"
  Value Type: "pKd"
  Reported Measurement: 8.22

query: Which pKd reading was recorded for the binder MSPRO2 (Fab, V domains shown) VH: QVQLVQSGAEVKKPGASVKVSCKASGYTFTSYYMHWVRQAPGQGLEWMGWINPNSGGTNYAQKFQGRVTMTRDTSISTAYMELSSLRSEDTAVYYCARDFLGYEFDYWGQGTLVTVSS VL: DIELTQPPSVSVAPGQTARISCSGDALGDKYASWYQQKPGQAPVLVIYDDSDRPSGIPERFSGSNSGNTATLTISGTQAEDEADYYCQSYDYSADYVFGGGTKLTVLG ?
result: 7.43
